B1: ZNF232 (parent)
chain: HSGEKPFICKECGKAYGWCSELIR

Variants of: B1
Test: protein stability index of a GFP-peptide fusion (GPS, HEK-293T) (PSI 1-6); higher = more stable;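 note: lentivirally expressed fusions sorted by FACS into six bins by GFP to DsRed ratio, PSI derived from sequencing read proportions per bin multiplied by bin number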
Details: c terminus: a fixed tail appended
Where protein stability index equals or exceeds 2, the correct label is yes; where it does not, the label is no.

- changes: "G13C"
  qualitative.label: "yes"
- changes: "G17Q"
  qualitative.label: "yes"
- changes: "E11P"
  qualitative.label: "no"
- changes: "F7K"
  qualitative.label: "yes"
- changes: "W18V"
  qualitative.label: "yes"
- changes: "C19A"
  qualitative.label: "yes"
- changes: "K5P"
  qualitative.label: "yes"
- changes: "L22E"
  qualitative.label: "yes"
- changes: "S20E"
  qualitative.label: "yes"
- changes: "F7E"
  qualitative.label: "yes"
- changes: "E11K"
  qualitative.label: "no"
- changes: "I8K"
  qualitative.label: "yes"
- changes: "K14W"
  qualitative.label: "yes"
- changes: "C9W"
  qualitative.label: "yes"
- changes: "C12D"
  qualitative.label: "yes"
- changes: "K14Q"
  qualitative.label: "no"
- changes: "A15F"
  qualitative.label: "no"
- changes: "G13I"
  qualitative.label: "no"
- changes: "H1Y"
  qualitative.label: "yes"
- changes: "I8P"
  qualitative.label: "no"
- changes: "H1V"
  qualitative.label: "no"
- changes: "A15C"
  qualitative.label: "yes"
- changes: "A15D"
  qualitative.label: "no"
- changes: "G17H"
  qualitative.label: "yes"
- changes: "G13K"
  qualitative.label: "no"
- changes: "P6I"
  qualitative.label: "no"
- changes: "G17T"
  qualitative.label: "no"
- changes: "G3D"
  qualitative.label: "yes"
- changes: "P6V"
  qualitative.label: "yes"
- changes: "W18F"
  qualitative.label: "no"
- changes: "A15H"
  qualitative.label: "no"
- changes: "K5G"
  qualitative.label: "yes"
- changes: "F7A"
  qualitative.label: "yes"
- changes: "G3C"
  qualitative.label: "yes"
- changes: "I8H"
  qualitative.label: "no"
- changes: "E11C"
  qualitative.label: "yes"
- changes: "K14P"
  qualitative.label: "no"
- changes: "H1K"
  qualitative.label: "yes"
- changes: "L22R"
  qualitative.label: "yes"
- changes: "E4D"
  qualitative.label: "no"
- changes: "C9A"
  qualitative.label: "no"
- changes: "A15K"
  qualitative.label: "no"
- changes: "L22V"
  qualitative.label: "yes"
- changes: "C9H"
  qualitative.label: "yes"
- changes: "L22N"
  qualitative.label: "no"
- changes: "G13R"
  qualitative.label: "no"
- changes: "E21C"
  qualitative.label: "yes"
- changes: "E21M"
  qualitative.label: "yes"
- changes: "I8C"
  qualitative.label: "yes"
- changes: "S2Y"
  qualitative.label: "no"
- changes: "G17I"
  qualitative.label: "yes"
- changes: "K10P"
  qualitative.label: "yes"
- changes: "E4G"
  qualitative.label: "no"
- changes: "E21H"
  qualitative.label: "yes"
- changes: "E4S"
  qualitative.label: "yes"
- changes: "C12E"
  qualitative.label: "yes"
- changes: "C12L"
  qualitative.label: "yes"
- changes: "C9V"
  qualitative.label: "yes"
- changes: "E4A"
  qualitative.label: "no"
- changes: "W18C"
  qualitative.label: "yes"
- changes: "Y16R"
  qualitative.label: "yes"
- changes: "H1D"
  qualitative.label: "yes"
- changes: "W18H"
  qualitative.label: "yes"
- changes: "I23Y"
  qualitative.label: "no"
- changes: "R24A"
  qualitative.label: "no"
- changes: "C19W"
  qualitative.label: "no"
- changes: "L22H"
  qualitative.label: "yes"
- changes: "S20D"
  qualitative.label: "no"
- changes: "K5F"
  qualitative.label: "no"
- changes: "K10D"
  qualitative.label: "no"
- changes: "S2F"
  qualitative.label: "yes"
- changes: "K5S"
  qualitative.label: "yes"
- changes: "G17P"
  qualitative.label: "yes"
